- EXPERIMENT NOTES: osmotic lysis modulators in infected erythrocytes, primary screen, PSAC antagonist project, cell-based, P. falciparum Indochina, OD700, 3 h (AID 1156)
- CONDITION DETAILS: higher = more signal, called active from +8 up or from −8 down
Provide the recorded z-score for the entries that follow.
Give bare numbers.

Here is how some molecules turned out for z-score.
| MOLECULE | MEASURE | NUMBER |
| --- | --- | --- |
| CC(CCN1CCc2nc(-c3ccccc3)c(-c3ccccc3)cc2C1)=NOC[C@@H](O)[C@H]1O[C@@H]2OC(C)(C)O[C@@H]2[C@H]1O | z-score | 0.318 |
| CCN1C(=O)[C@H]2[C@H]3[C@H](O)[C@H](O)CC(=NOCC(C)C)[C@@H]3CC[C@H]2C1=O | z-score | 0.456 |
| C#CCCCON=C1[C@H]2CCn3c(=O)n(C)c(=O)n3[C@H]2[C@H](O)[C@@H]2O[C@H]12 | z-score | -0.354 |
| CON=Cc1ccc(C(=O)N2[C@H](c3ccc(C)cc3)[C@@H](C)CC[C@H]2C(=O)OC)cc1 | z-score | 0.0014 |
| CCOC(=O)[C@H](CC(C)C)NC(=O)CCC1CC(OC(=O)NCc2ccc3c(c2)OCO3)CC2(CCCC(COC(=O)NCCCN3CCCC3=O)O2)O1 (stereo not given in full) | z-score | -0.447 |
| CCOC(=O)NN=C1C[C@@H](O)[C@@H](O)[C@@H]2[C@@H]3C(=O)N([C@@H](C)c4ccccc4)C(=O)[C@@H]3CC[C@@H]12 | z-score | -0.611 |
| CC(=O)OC[C@H]1O[C@H](CC=NO[C@H](C)c2cn([C@H](CO)Cc3ccccc3)nn2)C=C[C@@H]1OC(C)=O | z-score | 0.238 |
| C=CC1=C[C@H](O)[C@@H]2O[C@@H]2C12OCCCO2 | z-score | -0.264 |

For every item in the list below, what is its measured z-score?
1. CC(CCN1CCCCc2nc(C)c(C)cc21)=NO[C@@H](C)c1cn([C@H](CO)Cc2ccccc2)nn1
2. COC(=O)CC=C[C@@H](C)[C@@H](C=NO[C@H](C)c1cn([C@@H]2COC[C@H]2O)nn1)NS(=O)(=O)c1ccc(C)cc1
3. Cc1ccc(S(=O)(=O)OC[C@H]2CN3[C@H](c4ccc(Br)cc4)[C@@H](C)CC[C@H]3C(=O)O2)cc1
4. CO[C@@H]1COC(=O)CC=C[C@H](C)[C@H](OC)COC(=O)[C@H](C)NC(=O)CC=C[C@H]1C
5. O=C1[C@H]2[C@H]3[C@H](O)[C@H](O)CC(=NO[C@@H]4O[C@H](CO)[C@@H](O)[C@H](O)[C@H]4O)[C@H]3CC[C@H]2C(=O)N1c1cccc(Oc2ccccc2)c1

a:
1. 0.729
2. 0.785
3. 0.896
4. 0.704
5. 0.253

For every item in the list below, what is its measured z-score?
1. O=c1n(-c2ccccc2)c(=O)n2n1CC[C@@H]1C(=NOCc3ccccc3)[C@H]3O[C@H]3[C@@H](O)[C@@H]12
2. O=c1n(Cc2cc3c(cc2Cl)OCO3)c(=O)n2n1CC[C@@H]1C(=NOC[C@@H](O)COCc3ccco3)[C@H]3O[C@H]3[C@@H](O)[C@@H]12

a:
1: 0.349; 2: -0.258
